Values were extracted from ChEMBL document CHEMBL4334464.

System: Staphylococcus aureus
Experiment: Antibacterial activity against vancomycin-resistant Staphylococcus aureus isolate 10 after 18 to 20 hrs in aerobic condition by CLSI-based broth microdilution assay
Format: functional
reportedMetric: MIC (µg/mL)
# number only, unit µg/mL dropped from output

>>> endpointresult("C/C(=N\\NC(=N)N)c1cnn(-c2ccc(C#Cc3ccccc3)cc2)c1C")
1
>>> endpointresult("CCCCCC#Cc1ccc(-n2ncc(/C(C)=N/NC3=NCCN3)c2C)cc1")
2
>>> endpointresult("CC(=O)NC[C@H]1CN(c2ccc(N3CCOCC3)c(F)c2)C(=O)O1")
1
>>> endpointresult("C/C(=N\\NC(=N)N)c1cnn(-c2ccc(C#CC3CCCC3)cc2)c1C")
0.5
>>> endpointresult("CCCCCC#Cc1ccc(-n2ncc(/C(C)=N/NC(=N)N)c2C)cc1")
2
>>> endpointresult("C/C(=N\\NC1=NCCN1)c1cnn(-c2ccc(C#CC3CCCC3)cc2)c1C")
8
>>> endpointresult("C/C(=N\\NC(=N)N)c1cnn(-c2ccc(C#CC3CCCCC3)cc2)c1C")
2
>>> endpointresult("CCCC#Cc1ccc(-n2ncc(/C(C)=N/NC(=N)N)c2C)cc1")
2

Okay, now this compound:
For `C/C(=N\NC(=N)N)c1cnn(-c2ccc(C#CC3(O)CCCCC3)cc2)c1C` the compound record lists MIC as 2

----------
Experiment: Intrinsic clearance in human liver microsomes in absence of NADPH by LC/MS/MS analysis
Type: ADME, Microsome
Conditions: read-out: CLH
Entries and their measured microsomal CLint follow.

For `C/C(=N\NC(=N)N)c1cnn(-c2ccc(C#CC3CCCC3)cc2)c1C` the compound record lists microsomal CLint as < 116 µL/min/mg

For `C/C(=N\NC1=NCCN1)c1cnn(-c2ccc(C#CC3CCCC3)cc2)c1C` the compound record lists microsomal CLint as < 116 µL/min/mg

----------
Tested on: Klebsiella pneumoniae
Test: Ratio of MBC to MIC for Klebsiella pneumoniae BAA-1706 after 18 to 20 hrs in aerobic condition by CLSI-based broth microdilution assay
Assay type: functional
reportedMetric: Ratio

>>> endpointresult("CCCCCC#Cc1ccc(-n2ncc(/C(C)=N/NC3=NCCN3)c2C)cc1")
">=1"
>>> endpointresult("C/C(=N\\NC(=N)N)c1cnn(-c2ccc(C#CC3CCCC3)cc2)c1C")
">=1"
>>> endpointresult("C/C(=N\\NC1=NCCN1)c1cnn(-c2ccc(C#CC3CCCC3)cc2)c1C")
">=1"

----------
System: Escherichia coli
Assay: Antimicrobial activity against Escherichia coli JW55031 harboring deltatolC mutant after 18 to 20 hrs in aerobic condition by CLSI protocol based broth microdilution assay
Type: functional
reportedMetric: MIC (µg/mL)
# number only, unit µg/mL dropped from output

See these solved cases before continuing.
>>> endpointresult("CCCCCCC#Cc1ccc(-n2ncc(/C(C)=N/NC(=N)N)c2C)cc1")
8
>>> endpointresult("C/C(=N\\NC1=NCCN1)c1cnn(-c2ccc(C#CC(C)(C)C)cc2)c1C")
16

For `C/C(=N\NC(=N)N)c1cnn(-c2ccc(C#Cc3ccccc3)cc2)c1C` the molecule record lists MIC as 2

For `CCCCCCC#Cc1ccc(-n2ncc(/C(C)=N/NC3=NCCN3)c2C)cc1` the molecule record lists MIC as 8

For `C/C(=N\NC1=NCCN1)c1cnn(-c2ccc(C#CC(C)(C)O)cc2)c1C` the molecule record lists MIC as 16

----------
Test system: Acinetobacter baumannii
Experiment: Antibacterial activity against Acinetobacter baumannii ATCC BAA 1141 clinical isolates after 18 to 20 hrs in aerobic condition by CLSI-based broth microdilution assay
Assay type: functional
reportedMetric: MIC

>>> endpointresult("C/C(=N\\NC(=N)N)c1cnn(-c2ccc(C#Cc3ccccc3)cc2)c1C")
"4 µg/mL"
>>> endpointresult("C/C(=N\\NC(=N)N)c1cnn(-c2ccc(C#CC3(O)CCCCC3)cc2)c1C")
"8 µg/mL"
>>> endpointresult("C/C(=N\\NC(=N)N)c1cnn(-c2ccc(C#CC3CCCCC3)cc2)c1C")
"4 µg/mL"

For `CCCCCC#Cc1ccc(-n2ncc(/C(C)=N/NC3=NCCN3)c2C)cc1` the compound record lists MIC as > 128 µg/mL

For `C/C(=N\NC(=N)N)c1cnn(-c2ccc(C#CC3CCCC3)cc2)c1C` the compound record lists MIC as 4 µg/mL

For `CCCC#Cc1ccc(-n2ncc(/C(C)=N/NC(=N)N)c2C)cc1` the compound record lists MIC as 8 µg/mL

For `C/C(=N\NC1=NCCN1)c1cnn(-c2ccc(C#CC3CCCC3)cc2)c1C` the compound record lists MIC as 16 µg/mL

For `CCCCCC#Cc1ccc(-n2ncc(/C(C)=N/NC(=N)N)c2C)cc1` the compound record lists MIC as 4 µg/mL

----------
System: Enterococcus faecium
Experiment: Antibacterial activity against vancomycin-resistant Enterococcus faecium ATCC 700221 clinical isolates after 18 to 20 hrs in aerobic condition by CLSI-based broth microdilution assay
Format: functional
Entries and their measured MIC follow.
# number only, unit µg/mL dropped from output

See these solved cases before continuing.
>>> endpointresult("C/C(=N\\NC(=N)N)c1cnn(-c2ccc(C#Cc3ccccc3)cc2)c1C")
1
>>> endpointresult("CC(=O)NC[C@H]1CN(c2ccc(N3CCOCC3)c(F)c2)C(=O)O1 [LINEZOLID]")
1

Okay, now this compound:
For `C/C(=N\NC1=NCCN1)c1cnn(-c2ccc(C#CC3CCCC3)cc2)c1C` the compound record lists MIC as 4

----------
Assay: Stability in human liver microsomes assessed as compound remaining incubated for 30 mins in absence of NADPH by LC/MS/MS analysis
Type: ADME, Microsome
Conditions: read-out: Stability
Entries and their measured remaining at 0.5 h follow.
Please make sure the unit comes right after the number.

>>> endpointresult("C/C(=N\\NC1=NCCN1)c1cnn(-c2ccc(C#CC3CCCC3)cc2)c1C")
"97%"

Okay, now this compound:
For `C/C(=N\NC(=N)N)c1cnn(-c2ccc(C#CC3CCCC3)cc2)c1C` the compound record lists remaining at 0.5 h as 99%

----------
Assay: Stability in human liver microsomes assessed as compound remaining incubated for 15 mins in presence of NADPH by LC/MS/MS analysis
Type: ADME, Microsome
Conditions: read-out: Stability
reportedMetric: remaining at 0.25 h (%)
# number only, unit % dropped from output

>>> endpointresult("C/C(=N\\NC1=NCCN1)c1cnn(-c2ccc(C#CC3CCCC3)cc2)c1C")
99

Okay, now this compound:
For `C/C(=N\NC(=N)N)c1cnn(-c2ccc(C#CC3CCCC3)cc2)c1C` the compound record lists remaining at 0.25 h as 93

----------
System: Escherichia coli
Experiment: Antibacterial activity against Escherichia coli BW25113 clinical isolates after 18 to 20 hrs in aerobic condition by CLSI-based broth microdilution assay
Type: functional
reportedMetric: MIC

>>> endpointresult("C/C(=N\\NC(=N)N)c1cnn(-c2ccc(C#CC3(O)CCCCC3)cc2)c1C")
"8 µg/mL"
>>> endpointresult("CCCCCC#Cc1ccc(-n2ncc(/C(C)=N/NC3=NCCN3)c2C)cc1")
"> 128 µg/mL"
>>> endpointresult("C/C(=N\\NC1=NCCN1)c1cnn(-c2ccc(C#CC3CCCC3)cc2)c1C")
"64 µg/mL"
>>> endpointresult("C/C(=N\\NC(=N)N)c1cnn(-c2ccc(C#CC3CCCCC3)cc2)c1C")
"4 µg/mL"
>>> endpointresult("CCCCCC#Cc1ccc(-n2ncc(/C(C)=N/NC(=N)N)c2C)cc1")
"8 µg/mL"
>>> endpointresult("C/C(=N\\NC(=N)N)c1cnn(-c2ccc(C#CC3CCCC3)cc2)c1C")
"8 µg/mL"
>>> endpointresult("C/C(=N\\NC(=N)N)c1cnn(-c2ccc(C#Cc3ccccc3)cc2)c1C")
"8 µg/mL"

For `CCCC#Cc1ccc(-n2ncc(/C(C)=N/NC(=N)N)c2C)cc1` the molecule record lists MIC as 8 µg/mL

----------
Test system: Escherichia coli
Test: Antibacterial activity against carbapenem-resistant Escherichia coli BAA-2452 clinical isolates after 18 to 20 hrs in aerobic condition by CLSI-based broth microdilution assay
Format: functional
reportedMetric: log10(MIC) (log10 of the value in µg/mL)
Hello, just confirming the data are log10 of MIC with units of µg/mL.

See these solved cases before continuing.
>>> endpointresult("C[C@@H](O)[C@H]1C(=O)N2C(C(=O)O)=C(S[C@@H]3CN[C@H](C(=O)N(C)C)C3)[C@H](C)[C@H]12")
1.51
>>> endpointresult("CCCCCC#Cc1ccc(-n2ncc(/C(C)=N/NC(=N)N)c2C)cc1")
1.20
>>> endpointresult("C[C@@H](O)[C@H]1C(=O)N2C(C(=O)O)=C(SCCNC=N)C[C@H]12 [IMIPENEM ANHYDROUS]")
1.51
>>> endpointresult("C/C(=N\\NC(=N)N)c1cnn(-c2ccc(C#CC3(O)CCCCC3)cc2)c1C")
1.81
>>> endpointresult("CCCC#Cc1ccc(-n2ncc(/C(C)=N/NC(=N)N)c2C)cc1")
1.51

For `C/C(=N\NC(=N)N)c1cnn(-c2ccc(C#Cc3ccccc3)cc2)c1C` the molecule record lists log10(MIC) as 0.90

For `C/C(=N\NC(=N)N)c1cnn(-c2ccc(C#CC3CCCC3)cc2)c1C` the molecule record lists log10(MIC) as 0.60

For `C/C(=N\NC(=N)N)c1cnn(-c2ccc(C#CC3CCCCC3)cc2)c1C` the molecule record lists log10(MIC) as 0.90

For `C/C(=N\NC1=NCCN1)c1cnn(-c2ccc(C#CC3CCCC3)cc2)c1C` the molecule record lists log10(MIC) as 1.20

For `CN(C)c1cc(NC(=O)CNC(C)(C)C)c(O)c2c1C[C@H]1C[C@H]3[C@H](N(C)C)C(O)=C(C(N)=O)C(=O)[C@@]3(O)C(O)=C1C2=O` the molecule record lists log10(MIC) as -0.60
